Listed below: pIC50 values for each entry.
- Tested on: SCC-3;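 further: cell viability assay measuring inhibition of SCC-3 cell growth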
- assayProtocol: cells
- Assay type: functional, cell-based, Homo sapiens
- runConditions: Homo sapiens, SCC-3
- Description: SANGER: Inhibition of human SCC-3 cell growth in a cell viability assay.
pIC50: −log10 of the molar value.

Record excerpt, results attached:
compound | targetEntity | pIC50
Oc1ccc2ccccc2c1SSc1c(O)ccc2ccccc12 | SCC-3 | < 4.49
CCC/C=C/C=C/C(=O)O[C@H]1/C(=C/C(=O)OC)C[C@H]2C[C@H]([C@@H](C)O)OC(=O)C[C@H](O)C[C@@H]3C[C@H](OC(C)=O)C(C)(C)[C@](O)(C[C@@H]4C/C(=C/C(=O)OC)C[C@H](/C=C/C(C)(C)[C@]1(O)O2)O4)O3 [BRYOSTATIN 1] | SCC-3 | < 8.10
O=C(O)c1ccc(-c2c[nH]c3ncc(-c4ccccc4)cc23)cc1C1CCCC1 [GSK-650394] | SCC-3 | < 4.80

pIC50 in this record for `COc1cc(N2CCN(C)CC2)ccc1Nc1ncc2c(n1)N(C)c1ccccc1C(=O)N2C` : < 5.10

====

- Test system: NCI-H1436;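 further: growth suppression of human NCI-H1436 cells, determined with a cell viability readout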
- assayProtocol: cells
- Format: functional, cell-based, Homo sapiens
- runConditions: Homo sapiens, NCI-H1436
- Description: SANGER: Inhibition of human NCI-H1436 cell growth in a cell viability assay.
pIC50: −log10 of the molar value.
assayEndpoint: pIC50

Record excerpt, results attached:
molSmiles | targetEntity | val
Nc1ccn([C@@H]2O[C@H](CO)[C@@H](O)C2(F)F)c(=O)n1 | NCI-H1436 | < 5.99
COc1cccc2c1C(=O)c1c(O)c3c(c(O)c1C2=O)C[C@@](O)(C(=O)CO)C[C@@H]3O[C@H]1C[C@H](N)[C@H](O)[C@H](C)O1 | NCI-H1436 | < 5.99

Let's switch to this compound now.
pIC50 in this record for `COc1cc(N2CCN(C)CC2)ccc1Nc1ncc2c(n1)N(C)c1ccccc1C(=O)N2C` : < 5.10

====

Listed below: IC50 values for each entry.
- System: EW-11;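 further: growth inhibition of human EW-11 cells, measured with a cell viability assay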
- assayProtocol: cells
- Assay type: functional, cell-based, Homo sapiens
- runConditions: Homo sapiens, EW-11
- Description: SANGER: Inhibition of human EW-11 cell growth in a cell viability assay.

Record excerpt, results attached:
compound | IC50
Cn1cnc2c(F)c(Nc3ccc(Br)cc3Cl)c(C(=O)NOCCO)cc21 [SELUMETINIB] | > 4 µM
CCN(CC)CCNC(=O)c1c(C)[nH]c(/C=C2\C(=O)Nc3ccc(F)cc32)c1C [SUNITINIB] | > 8 µM

Let's switch to this compound now.
IC50 in this record for Cc1cn(-c2cc(NC(=O)c3ccc(C)c(Nc4nccc(-c5cccnc5)n4)c3)cc(C(F)(F)F)c2)cn1 [NILOTINIB] : > 2 µM

====

Listed below: IC50 values for each entry.
- System: NCI-H1581;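 further: cell growth inhibition read out by a viability assay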
- assayProtocol: cells
- Assay type: functional, cell-based, Homo sapiens
- runConditions: Homo sapiens, NCI-H1581
- Description: SANGER: Inhibition of human NCI-H1581 cell growth in a cell viability assay.

IC50 in this record for COc1cc2ncn(-c3cc(OCc4ccccc4S(C)(=O)=O)c(C#N)s3)c2cc1OC [GSK-319347A] : > 5 µM

IC50 in this record for `Oc1ccc2ccccc2c1SSc1c(O)ccc2ccccc12` : > 32 µM

IC50 in this record for CC(C)CCN1c2nc(Nc3cc(F)c(O)c(F)c3)ncc2N(C)C(=O)C1C (centres undefined) : > 5 µM

IC50 in this record for `CCN(CC)CCNC(=O)c1c(C)[nH]c(/C=C2\C(=O)Nc3ccc(F)cc32)c1C` : > 8 µM
